- SYSTEM: T1, human CCL2 (MCP1) - wild type (wt) (human, UniProt P13500 24-99)
- T1 construct: Entry is without signal peptide; Made in-house or bought from R&D Systems (279-MC), depending on the assay; monomer-dimer equilibrium; also called wt human CCL2; hCCL2
- METHOD: SPR Biacore T200, 37 C, antibody captured, CCL2 as analyte, 1:1 model
Below, each entry is listed alongside its reported T½.
Give the value, in units of h, as a plain number.

Example entries begin here.
BINDER	OBSERVED VALUE
1A4 (antibody, V domains shown, also called CCL2-0008) VH: QSLEESGGDLVKPGASLTLTCTASELDFYWICWVRQAPGKGLEWIACIGAGSSGSTYYASWAKGRFTVSKTSSTTVTLQMTSLTAADTATYFCARTGTEFTYYSLWGPGTLVTVSS VL: ALVMTQTPSSVSAAVGGTVTINCQASQSVYNNNMAWYQQKPGQPPKLLIYTASSLASGVPSHFRGSGSGTQFTLTISDLESDDAATYYCAGYKSYSNDEYGFGGGTEVVVK	1.67
Humanized 11K2 (antibody, human IgG1, V domains shown, Generated as human IgG1 wild type and IgG1 PGLALA with kappa light chain; also called CCL2-0002; humanized 11k2 IgG1) VH: QVQLVQSGAEVKKPGSSVKVSCKASGLTISDTYMHWVRQAPGQGLEWMGRIDPANGNTKFDPKFQGRVTITADTSTSTAYMELSSLRSEDTAVYYCARGVFGFFDYWGQGTTVTVSS VL: DIQMTQSPSSLSASVGDRVTITCKATEDIYNRLAWYQQKPGKAPKLLISGATSLETGVPSRFSGSGSGTDYTLTISSLQPEDFATYYCQQFWSAPYTFGGGTKVEIK	1.97
2F6 (antibody, V domains shown, Generated as IgG1 wild type and IgG1 PGLALA with kappa light chain; also called CCL2-0014) VH: QSLEESGGGLVQPEGSLTLTCTASGFSFNNNYYMCWVRQAPGKGLEWIGCISTDDSNTHYASWAQGRFTISKASSTALTLQVAGLTVADMATYFCARDAHFTSYGYGFDLWGPGTLVTVSS VL: DIVMTQTPASVSAAVGGTVSINCRASEDIENLVAWYQQKPGQPPKLLIYQASKLASGVPSRFKGSGSGAEFTLTIGDLESADAATYYCQGDYGSGWIMYSFGGGTDLVVK	0.867

Pending binder:
Query (binder): murine 11K2 (antibody, V domains shown, also called 11K2m; X-0048) VH: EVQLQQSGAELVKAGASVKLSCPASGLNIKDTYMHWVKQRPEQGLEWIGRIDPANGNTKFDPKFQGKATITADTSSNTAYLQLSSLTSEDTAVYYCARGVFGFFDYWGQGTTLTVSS VL: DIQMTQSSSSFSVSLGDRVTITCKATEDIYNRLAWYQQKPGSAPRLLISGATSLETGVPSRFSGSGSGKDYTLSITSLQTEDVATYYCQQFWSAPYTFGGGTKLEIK ; field requested: T½ 0.317
